- ASSAY TARGET: Leucine--tRNA ligase (Escherichia coli (strain K12), UniProt P07813)
- Sequence (P07813 whole entry): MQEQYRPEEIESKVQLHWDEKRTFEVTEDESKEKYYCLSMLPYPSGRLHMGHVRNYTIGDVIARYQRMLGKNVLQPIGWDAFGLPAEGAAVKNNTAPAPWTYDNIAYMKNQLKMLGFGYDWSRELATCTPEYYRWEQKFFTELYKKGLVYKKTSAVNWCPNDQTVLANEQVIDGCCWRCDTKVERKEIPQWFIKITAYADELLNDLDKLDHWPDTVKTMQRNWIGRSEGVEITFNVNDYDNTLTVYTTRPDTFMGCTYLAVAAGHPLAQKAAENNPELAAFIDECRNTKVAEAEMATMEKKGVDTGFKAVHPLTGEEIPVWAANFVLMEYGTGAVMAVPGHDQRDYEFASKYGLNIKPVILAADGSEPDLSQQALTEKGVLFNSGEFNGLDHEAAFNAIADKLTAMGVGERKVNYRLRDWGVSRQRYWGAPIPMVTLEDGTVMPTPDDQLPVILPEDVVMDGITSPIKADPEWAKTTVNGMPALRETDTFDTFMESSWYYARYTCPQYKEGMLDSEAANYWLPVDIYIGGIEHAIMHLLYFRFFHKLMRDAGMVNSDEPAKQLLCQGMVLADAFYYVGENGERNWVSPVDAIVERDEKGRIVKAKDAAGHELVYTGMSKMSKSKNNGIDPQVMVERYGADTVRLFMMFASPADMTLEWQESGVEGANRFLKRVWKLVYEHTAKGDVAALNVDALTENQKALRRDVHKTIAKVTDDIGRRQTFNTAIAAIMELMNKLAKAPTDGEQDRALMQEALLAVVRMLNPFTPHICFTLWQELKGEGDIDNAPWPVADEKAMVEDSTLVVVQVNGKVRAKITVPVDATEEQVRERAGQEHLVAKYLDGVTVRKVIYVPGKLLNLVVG
- ASSAY INFO: Enzyme Inhibition Assay
MEASURED QUANTITY: IC50 (µM)
Express it in µM; write the number only.

GET /values?readout=IC50&item= CC(C)C[C@H](N)C(=O)N=S(N)(=O)c1cc[nH]n1 (stereo partly specified) 2.17

###

- ASSAY TARGET: Isoleucine--tRNA ligase (Escherichia coli (strain K12), UniProt P00956)
- Sequence (P00956 whole entry): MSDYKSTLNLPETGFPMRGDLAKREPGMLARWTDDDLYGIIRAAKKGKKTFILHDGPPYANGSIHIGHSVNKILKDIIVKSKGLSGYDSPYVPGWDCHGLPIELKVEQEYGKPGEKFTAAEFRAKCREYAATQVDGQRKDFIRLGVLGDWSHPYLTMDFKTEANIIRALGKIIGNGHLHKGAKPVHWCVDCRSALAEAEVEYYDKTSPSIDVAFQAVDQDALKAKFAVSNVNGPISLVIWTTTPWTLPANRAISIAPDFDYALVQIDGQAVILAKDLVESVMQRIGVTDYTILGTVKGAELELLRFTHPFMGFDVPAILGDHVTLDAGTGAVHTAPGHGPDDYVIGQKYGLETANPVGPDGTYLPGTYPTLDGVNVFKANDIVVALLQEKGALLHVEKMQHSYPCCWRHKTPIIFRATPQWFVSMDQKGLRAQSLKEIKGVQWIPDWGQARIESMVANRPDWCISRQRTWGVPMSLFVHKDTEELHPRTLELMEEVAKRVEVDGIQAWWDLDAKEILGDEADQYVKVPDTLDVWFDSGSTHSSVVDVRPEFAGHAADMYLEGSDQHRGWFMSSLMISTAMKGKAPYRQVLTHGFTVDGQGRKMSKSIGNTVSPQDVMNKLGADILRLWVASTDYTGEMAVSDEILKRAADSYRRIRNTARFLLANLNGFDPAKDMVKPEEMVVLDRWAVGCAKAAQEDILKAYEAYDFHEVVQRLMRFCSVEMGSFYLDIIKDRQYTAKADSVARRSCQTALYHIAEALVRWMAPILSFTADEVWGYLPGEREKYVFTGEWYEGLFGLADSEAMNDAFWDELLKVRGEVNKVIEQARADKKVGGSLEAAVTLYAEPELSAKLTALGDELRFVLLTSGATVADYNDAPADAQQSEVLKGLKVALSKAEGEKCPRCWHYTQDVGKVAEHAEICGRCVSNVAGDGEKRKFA
- ASSAY INFO: Enzyme Inhibition Assay
MEASURED QUANTITY: pIC50
pIC50 here is simply -log10 of the concentration when that concentration is written in mol/L.

Endpoint output: pIC50 of CC[C@H](C)[C@H](N)C(=O)N=S(N)(=O)c1ccc2ccccc2c1 (stereo partly specified) . Value? 5.02
